# Organism: Rattus norvegicus
# ASSAY_NOTES: Open TG-GATES - Regimen: Single
# Assay type: toxicity, organism-based, Sprague-Dawley
# Design: regimen Single, gender Male, age 6 weeks
# COND: in vivo, po, 300 mg/kg, 3 h, tissue Liver, route gavage, dose level Middle
Reported values of LIVER for individual entries
Write the value in g as a bare number.

Worked examples, 2 molecules total:
MOLECULE	LIVER, g
COC(=O)C1=C(C)NC(C)=C(C(=O)OC)C1c1ccccc1[N+](=O)[O-] [NIFEDIPINE]	8.1
CNC(=C[N+](=O)[O-])NCCSCc1ccc(CN(C)C)o1 [RANITIDINE]	9.9

Now for a further molecule.
Note down LIVER recorded for CN/C(=N/CCSCc1nc[nH]c1C)NC#N [CIMETIDINE]
10.5

---

# Organism: Rattus norvegicus
# ASSAY_NOTES: Open TG-GATES - Regimen: Daily Repeat
# Format: toxicity, organism-based, Sprague-Dawley
# Set-up: regimen Daily Repeat, gender Male, age 6 weeks
# COND: in vivo, po, 0 mg/kg, 72 h, tissue Plasma, route gavage, dose level Control, time 3 day
Checkbox rule: IP lower than 7 mg/dL = yes (1); IP not lower than 7 mg/dL = no (0).

Take a look at these entries with their results.
MOLECULE	LABEL_VALUE
CN1C(=O)CCS(=O)(=O)C1c1ccc(Cl)cc1 (stereo not given) [CHLORMEZANONE]	yes (1)
CNC(=C[N+](=O)[O-])NCCSCc1ccc(CN(C)C)o1 [RANITIDINE]	no (0)

Could you please tell me whether IP recorded for Cc1nnc2n1-c1ccc(Cl)cc1C(c1ccccc1Cl)=NC2 [TRIAZOLAM] is less than 7 mg/dL?
no (0)

---

# Species on record: Rattus norvegicus
# ASSAY_NOTES: Open TG-GATES - Regimen: Daily Repeat
# Assay type: toxicity, organism-based, Sprague-Dawley
# Set-up: regimen Daily Repeat, gender Male, age 6 weeks
# COND: in vivo, po, 1000 mg/kg, 72 h, tissue Plasma, route gavage, dose level High, time 3 day
Label Condition met when AST < 70 IU/L; otherwise Condition not met.

Previously resolved entries follow.
SMILES_REPRESENTATION	LABEL_VALUE
O=C(OC[C@H]1O[C@@H](OC(=O)c2cc(O)c(O)c(OC(=O)c3cc(O)c(O)c(O)c3)c2)[C@H](OC(=O)c2cc(O)c(O)c(OC(=O)c3cc(O)c(O)c(O)c3)c2)[C@@H](OC(=O)c2cc(O)c(O)c(OC(=O)c3cc(O)c(O)c(O)c3)c2)[C@@H]1OC(=O)c1cc(O)c(O)c(OC(=O)c2cc(O)c(O)c(O)c2)c1)c1cc(O)c(O)c(OC(=O)c2cc(O)c(O)c(O)c2)c1	Condition met
CN/C(=N/CCSCc1nc[nH]c1C)NC#N	Condition not met
CCOc1ccc(NC(C)=O)cc1	Condition not met
Cc1nnc2n1-c1ccc(Cl)cc1C(c1ccccc1Cl)=NC2	Condition met

Report whether reported AST is lower than 70 IU/L (strictly) for COC(=O)C1=C(C)NC(C)=C(C(=O)OC)C1c1ccccc1[N+](=O)[O-]
Condition met

---

# Organism: Rattus norvegicus
# ASSAY_NOTES: Open TG-GATES - Regimen: Single
# Format: toxicity, organism-based, Sprague-Dawley
# Parameters: regimen Single, gender Male, age 6 weeks
# COND: in vivo, po, 1000 mg/kg, 9 h, tissue Plasma, route gavage, dose level High
MEASUREMENT_TYPE: PL (mg/dL)
# number only, unit mg/dL dropped from output

SMILES_REPRESENTATION	QUANTITATIVE_RESULT
O=C(OC[C@H]1O[C@@H](OC(=O)c2cc(O)c(O)c(OC(=O)c3cc(O)c(O)c(O)c3)c2)[C@H](OC(=O)c2cc(O)c(O)c(OC(=O)c3cc(O)c(O)c(O)c3)c2)[C@@H](OC(=O)c2cc(O)c(O)c(OC(=O)c3cc(O)c(O)c(O)c3)c2)[C@@H]1OC(=O)c1cc(O)c(O)c(OC(=O)c2cc(O)c(O)c(O)c2)c1)c1cc(O)c(O)c(OC(=O)c2cc(O)c(O)c(O)c2)c1	113.8

# next molecule below
Determine from records and report PL for COC(=O)C1=C(C)NC(C)=C(C(=O)OC)C1c1ccccc1[N+](=O)[O-]
152.4
